Target: CRAF (Homo sapiens)
Construct: fused on or other part: GST tag (N-terminal according to the vendor's product)
Sequence (P04049 whole entry Y340E/Y341E, form open, the tested form may be a part): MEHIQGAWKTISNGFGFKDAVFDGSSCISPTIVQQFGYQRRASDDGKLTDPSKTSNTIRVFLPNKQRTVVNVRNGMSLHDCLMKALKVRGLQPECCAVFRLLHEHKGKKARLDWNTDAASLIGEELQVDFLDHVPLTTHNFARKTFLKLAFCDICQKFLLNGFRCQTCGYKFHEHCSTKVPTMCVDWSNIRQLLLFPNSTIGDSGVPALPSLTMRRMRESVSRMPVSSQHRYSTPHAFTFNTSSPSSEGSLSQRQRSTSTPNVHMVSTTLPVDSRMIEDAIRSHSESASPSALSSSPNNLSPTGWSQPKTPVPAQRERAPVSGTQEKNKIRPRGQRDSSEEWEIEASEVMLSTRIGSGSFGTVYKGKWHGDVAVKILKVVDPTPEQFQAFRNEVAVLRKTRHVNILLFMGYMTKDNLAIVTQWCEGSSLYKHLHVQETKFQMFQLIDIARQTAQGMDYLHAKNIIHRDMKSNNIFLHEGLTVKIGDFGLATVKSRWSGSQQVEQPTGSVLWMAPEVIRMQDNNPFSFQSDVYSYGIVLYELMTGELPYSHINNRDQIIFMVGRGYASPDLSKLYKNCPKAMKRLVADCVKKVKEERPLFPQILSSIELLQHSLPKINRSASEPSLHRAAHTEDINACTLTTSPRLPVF
Experiment: CRAF kinase activity assay (ADP-Glo)
Format: biochemical
Conditions: Table 3; 10 μM ATP, kinase-dead MEK1 substrate
measured-property: IC50

Here are 8 compounds together with their reported answers.
COC1CCN(c2cccc3c2ncn3-c2nc3c(Nc4c(F)ccc(NS(=O)(=O)c5cccc(Cl)c5Cl)c4F)ncnc3s2)CC1 [Example 139] | 0.01 to 0.05 µM
Cc1c(F)cccc1S(=O)(=O)Nc1ccc(F)c(Nc2ncnc3sc(-n4cnc5c(C(C)(C)C#N)cccc54)nc23)c1F [Example 112] | < 0.01 µM
O=S(=O)(Nc1ccc(F)c(Nc2ncnc3sc(-n4cnc5c(N6CCC7(CCCO7)CC6)cccc54)nc23)c1F)c1cccc(Cl)c1Cl [Example 136] | 0.01 to 0.05 µM
O=C(c1cn(-c2nc3c(Nc4c(F)ccc(NS(=O)(=O)c5cccc(Cl)c5Cl)c4F)ncnc3s2)c2ccccc12)N1CCC(O)C1 (stereo not shown) [Example 53] | < 0.01 µM
O=S(=O)(Nc1ccc(F)c(Nc2ncnc3sc(-n4cnc5c(-c6cccnc6)cccc54)nc23)c1F)c1cccc(Cl)c1Cl [Example 9] | < 0.01 µM
O=S(=O)(Nc1ccc(F)c(Nc2ncnc3sc(-n4cnc5c(F)cc(F)cc54)nc23)c1F)c1cccc(Cl)c1Cl [Example 71] | < 0.01 µM
CCC1(O)CN(C(=O)c2cn(-c3nc4c(Nc5c(F)ccc(NS(=O)(=O)c6cccc(Cl)c6Cl)c5F)ncnc4s3)c3ccccc23)C1 [Example 95] | < 0.01 µM
CC(C)(O)C1CN(C(=O)c2cn(-c3nc4c(Nc5c(F)ccc(NS(=O)(=O)c6cccc(Cl)c6Cl)c5F)ncnc4s3)c3ccccc23)C1 [Example 87] | < 0.01 µM

Q. Which measured IC50 value corresponds to CN(CC(F)F)S(=O)(=O)c1cn(-c2nc3c(Nc4c(F)ccc(NS(=O)(=O)c5cccc(Cl)c5Cl)c4F)ncnc3s2)c2ccccc12 [Example 75] ?
A. 0.01 to 0.05 µM

Q. Bench note: what IC50 did COCCCN(C)c1cccc2c1ncn2-c1nc2c(Nc3c(F)ccc(NS(=O)(=O)c4cccc(Cl)c4Cl)c3F)ncnc2s1 [Example 128] show?
A. 0.01 to 0.05 µM

Q. If you can, please state the reported IC50 value of Cc1ncn(-c2nc3c(Nc4c(F)ccc(NS(=O)(=O)c5cccc(F)c5C)c4F)ncnc3s2)c1C [Example 1] .
A. < 0.01 µM

Q. Requested read-out: IC50. Entry: O=S(=O)(Nc1ccc(F)c(Nc2ncnc3sc(-n4ccc5ccccc54)nc23)c1F)c1cccc(Cl)c1Cl [Example 114]
A. > 0.05 µM

Q. Quick check: IC50 of Cc1c(Cl)cccc1S(=O)(=O)Nc1ccc(F)c(Nc2ncnc3sc(-n4cnc5c(F)cccc54)nc23)c1F [Example 36] ?
A. 0.01 to 0.05 µM

Where these numbers come from: patent US20260137697A1
